# EXPERIMENTAL TARGET: Human plasma kallikrein (Homo sapiens (Human))
# TEST DETAILS: Determination of the IC50 for Plasma Kallikrein
# Format: biochemical
# RUN PARAMETERS: 37° C., fluorogenic substrate H-DPro-Phe-Arg-AFC; read-out: IC50 (human PKal)
pIC50: −log10 of the molar value.
Assign yes (1) to entries whose pIC50 meets or exceeds 6; assign no (0) to the rest.

- COMPOUND: "Cc1cc(CN)cc(C)c1CNC(=O)c1cn(Cc2ccnc(N3CCCC3)c2)nc1C(F)(F)F [Example 129]"
  LABEL VALUE: "yes (1)"
- COMPOUND: "Cc1ccc2cc(Cn3cc(C(=O)NCc4c(C)cc(CN)cc4C)c(C)n3)ccc2n1 [Example 124]"
  LABEL VALUE: "yes (1)"
- COMPOUND: "Cc1cnn(Cc2ccc(Cn3cnc(C(=O)NCc4ccc(CN)cc4C)c3)cc2)c1 [Example 107]"
  LABEL VALUE: "yes (1)"
- COMPOUND: "Cc1cc(CN)cc(C)c1CNC(=O)c1cc(C)n(Cc2ccc(Cn3ccccc3=O)cc2)c1C [Example 94]"
  LABEL VALUE: "yes (1)"
- COMPOUND: "Cc1cc(C(=O)NCc2ccc(CN)cc2)c(C)n1Cc1cccc(N2CCOCC2)c1 [Example 73]"
  LABEL VALUE: "no (0)"
- COMPOUND: "Cc1cnn(Cc2ccc(Cn3cc(C(=O)NCc4ccc(C5(N)CC5)cc4)nn3)cc2)c1 [Example 110]"
  LABEL VALUE: "no (0)"
- COMPOUND: "Cc1cc(C(=O)NCc2ccc(CN)cc2)c(C)n1Cc1cccs1 [Example 20]"
  LABEL VALUE: "no (0)"
- COMPOUND: "Cc1ccc(-c2nc(Cn3c(C)cc(C(=O)NCc4ccc(CN)cc4)c3C)cs2)cc1 [Example 35]"
  LABEL VALUE: "no (0)"
- COMPOUND: "CCn1c(C(=O)NCc2ccc(CN)cc2C)cc(C)c1Cc1ccc(Cn2ccccc2=O)cc1 [Example 92]"
  LABEL VALUE: "yes (1)"
- COMPOUND: "Cc1cc(C(=O)NCc2ccc(CN)c(F)c2)c(C)n1Cc1csc(-c2ccccc2)n1 [Example 45]"
  LABEL VALUE: "yes (1)"

Moving on to another compound below.
Can NCc1ccc(CNC(=O)c2cn(Cc3ccccc3)nc2-c2ccccc2)cc1 [Example 84] be said to have pIC50 at or above 6?
no (0)

* * *

# EXPERIMENTAL TARGET: Human plasma kallikrein (Homo sapiens (Human), UniProt P03952)
# Sequence (P03952 391-638): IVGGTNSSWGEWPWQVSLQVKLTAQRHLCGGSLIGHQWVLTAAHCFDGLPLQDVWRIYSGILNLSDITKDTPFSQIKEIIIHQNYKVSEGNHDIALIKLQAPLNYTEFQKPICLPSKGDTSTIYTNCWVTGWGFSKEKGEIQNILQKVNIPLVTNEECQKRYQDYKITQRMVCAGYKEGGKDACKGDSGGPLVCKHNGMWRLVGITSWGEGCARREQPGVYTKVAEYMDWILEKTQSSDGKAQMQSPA
# Sequence (P03952 20-390 partner): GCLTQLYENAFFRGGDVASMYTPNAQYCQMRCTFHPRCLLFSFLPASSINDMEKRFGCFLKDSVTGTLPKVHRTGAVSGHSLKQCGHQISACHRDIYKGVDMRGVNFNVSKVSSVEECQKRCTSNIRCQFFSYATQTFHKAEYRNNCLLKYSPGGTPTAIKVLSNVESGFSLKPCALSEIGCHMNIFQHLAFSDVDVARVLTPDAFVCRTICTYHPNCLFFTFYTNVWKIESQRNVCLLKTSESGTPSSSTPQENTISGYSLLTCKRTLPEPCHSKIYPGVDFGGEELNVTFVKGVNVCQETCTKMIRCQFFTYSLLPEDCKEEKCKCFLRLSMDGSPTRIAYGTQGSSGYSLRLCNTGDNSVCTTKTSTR
# TEST DETAILS: Determination of the IC50 for Plasma Kallikrein
# Type: biochemical
# RUN PARAMETERS: 37° C., fluorogenic substrate H-DPro-Phe-Arg-AFC; read-out: IC50 (human PKal)
READOUT NAME: pIC50
API: returns pIC50 as number; meaning -log10 of concentration in mol/L.

Reference set (4 entries):
- MOL SMILES: "Cc1cc(C(=O)NCc2ccc(CN)cc2Cl)c(C)n1Cc1ccccc1"
  pIC50: 5.41
- MOL SMILES: "Cc1c(C(=O)NCc2ccc(CN)cc2)ccn1Cc1csc(-c2ccccc2)n1"
  pIC50: 5.88
- MOL SMILES: "Cc1cc(C(=O)NCc2ccc(CN)cc2)c(C)n1Cc1ccc(-c2ccccc2)cc1"
  pIC50: 5.34
- MOL SMILES: "Cc1cc(C(=O)NCc2ccc(CN)cc2)c(C)n1Cc1csc(Cc2ccccc2)n1"
  pIC50: 5.64

pIC50 recorded for this compound, NC1(c2ccc(CNC(=O)c3cnn(Cc4ccc(Cn5ccccc5=O)cc4)c3)cc2)CC1 , is 6.65

The reported pIC50 of the compound Cc1cc(C(=O)NCc2ccc(CN)cc2)c(-c2ccccc2)n1Cc1csc(-c2ccccc2)n1 was 6.37

pIC50 measured on Cc1cc(C(=O)NCc2ccc(CN)cc2)c(-c2ccccc2)n1Cc1ccccc1 = 5.14

Please fill in: pIC50 reported for Cc1cnn(Cc2ccc(Cn3cnc(C(=O)NCc4ccc(CN)cc4)c3)cc2)c1 = 7.52

The origin of these recorded values is patent US9670157B2.
